biological target: Cytochrome P450 2C9 (Homo sapiens) (UniProt P11712); assay: blockers of cytochrome P450 2C9 activity – biochemical, luminescence, ADME assay, primary screen (AID 777); conditions: CYP2C9 Supersomes, luciferin-H conversion, at 5 µM
Sequence (P11712 whole entry, looked up): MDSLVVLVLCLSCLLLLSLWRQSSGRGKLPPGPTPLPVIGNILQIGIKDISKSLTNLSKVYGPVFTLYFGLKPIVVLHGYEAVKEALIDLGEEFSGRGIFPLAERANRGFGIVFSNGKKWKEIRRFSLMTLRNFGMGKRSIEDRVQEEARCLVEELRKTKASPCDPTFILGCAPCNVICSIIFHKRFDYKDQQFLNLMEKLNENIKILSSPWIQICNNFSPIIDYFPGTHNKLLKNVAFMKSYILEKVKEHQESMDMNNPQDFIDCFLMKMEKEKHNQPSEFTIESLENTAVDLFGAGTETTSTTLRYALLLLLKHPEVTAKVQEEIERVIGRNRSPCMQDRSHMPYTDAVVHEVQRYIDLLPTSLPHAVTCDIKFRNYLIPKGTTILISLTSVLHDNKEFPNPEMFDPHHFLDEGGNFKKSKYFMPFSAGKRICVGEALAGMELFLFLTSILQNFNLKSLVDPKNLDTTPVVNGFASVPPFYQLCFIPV
About 19,000 (20%) of roughly 96,000 compounds were called active.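 The calls were made as follows: active = blocking of liver enzyme CYP2C9 beyond about 50% at 5 µM (limit read from the data); inactive = the rest.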 Not all results are given here.
Your answer must be one of the following: active, inactive

Consider the following illustrative entries.
CCCCNCc1ccc(SC)cc1; inactive
Cc1cc(C)c2nc(SCCC#N)nc(C)c2c1; inactive
CCCSc1nc(NCc2ccco2)c2c3c(sc2n1)COC(C)(CC)C3 (configuration not stated); inactive
C=CCNc1nnc(SCC(=O)N2CCCCC2)c2ccccc12; inactive
CCCc1cc(=O)[nH]c(SCC(=O)OCc2ccccc2)n1; inactive

Data request: What outcome does the record of this test show for CCCCOC(=O)CNc1nnc(SCC(=O)OCC)[nH]c1=O ?
Data returned: inactive

Data request: What outcome does the record of this test show for CCCc1cc(=O)[nH]c(SCc2ccc(C#N)cc2)n1 ?
Data returned: active

====

biological target: Cytochrome P450 2C9 (Homo sapiens); experiment: blockers of cytochrome P450 2C9 activity – biochemical, luminescence, ADME assay, primary screen (AID 777); conditions: CYP2C9 Supersomes, luciferin-H conversion, at 5 µM
The whole screen tested about 96,000 compounds, of which about 19,000 (20%) were called active.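 Rule for the calls: active = blocking of liver enzyme CYP2C9 beyond about 50% at 5 µM (limit read from the data); inactive = the rest.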 Only a sample is shown.
Your answer must be one of the following: 1 for active, 0 for inactive

Data request: What outcome does the record of this test show for Cc1ccc(S(=O)(=O)C(C#N)c2nc3ccccc3nc2N2CCCC2)cc1C (stereo unspecified) ?
Data returned: 1

Data request: What outcome does the record of this test show for Cc1ccccc1NC(=S)Nc1cccc([N+](=O)[O-])c1 ?
Data returned: 0

Data request: What outcome does the record of this test show for O=C1c2oc3ccccc3c(=O)c2C(c2cccc(O)c2)N1c1ccccn1 (stereo unspecified) ?
Data returned: 0

Data request: What outcome does the record of this test show for Cc1cccc2cc(C#N)c(N3CCCC3)nc12 ?
Data returned: 0

Data request: What outcome does the record of this test show for CCOc1ccc(C(=O)Nc2ccncc2)cc1 ?
Data returned: 1

Data request: What outcome does the record of this test show for COc1cccc(Oc2ccc(N)cc2)c1 ?
Data returned: 0

====

target: Cytochrome P450 2C9 (Homo sapiens); test: blockers of cytochrome P450 2C9 activity – biochemical, luminescence, ADME assay, primary screen (AID 777); settings: CYP2C9 Supersomes, luciferin-H conversion, at 5 µM
The whole screen tested about 96,000 compounds, of which about 19,000 (20%) were called active.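 Rule for the calls: active = blocking of liver enzyme CYP2C9 beyond about 50% at 5 µM (limit read from the data); inactive = the rest.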 A selection follows.
Your answer must be one of the following: 1 (yes) = active, 0 (no) = inactive

Consider the following illustrative entries.
Nc1ccc(-c2sc(N)nc2-c2ccccc2)cc1; 0 (no)
Cc1ccc(S(=O)(=O)NCC(=O)N(CC(=O)NC2CCCCC2)Cc2ccco2)cc1; 0 (no)
c1cc(-n2cnnn2)ccc1NC1=NCCC1; 0 (no)

Data request: What outcome does the record of this test show for Clc1ccc(C2CC(c3cccs3)n3ncnc3N2)cc1Cl (configuration not stated) ?
Data returned: 1 (yes)

Data request: What outcome does the record of this test show for N#CCCN(CCC#N)c1nnc(-c2ccccc2)s1 ?
Data returned: 0 (no)

Data request: What outcome does the record of this test show for Nc1ccc(Nc2ccccc2)cc1 ?
Data returned: 0 (no)

Data request: What outcome does the record of this test show for CC1CCC(N2CC(=O)N(Cc3ccc4c(c3)OCO4)C(c3ccc(F)cc3)C2=O)CC1 (configuration not stated) ?
Data returned: 0 (no)

Data request: What outcome does the record of this test show for CCOC(=O)c1ccc(N2C(=O)CC(Sc3nc(O)c(CC)c(=O)[nH]3)C2=O)cc1 (configuration not stated) ?
Data returned: 0 (no)
